// data source = PubChem BioAssay AID1963449

In this section, each of the compounds is paired with its reported viability, T/C.
- Test system: 596521-263-R-J1-PDC complex spheroid growth;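 note: spheroids exposed to compounds for 7 days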
- procedure_summary: Anticancer human tumor 596521-263-R-J1-PDC patient-derived soft tissue sarcoma cell line growth inhibition [Asc]
- cond: second compound 0.1 µM; first compound 0.01 µM; hits give low values

Completed entries (count: 2):
| compound | target | viability, T/C |
| --- | --- | --- |
| O=C(c1ccc(F)c(F)c1Nc1ccc(I)cc1F)N1CC(O)([C@@H]2CCCCN2)C1 + Cc1c(S(C)(=O)=O)c(-c2cc(F)cc(N3CCN(c4ccc(NS(=O)(=O)c5ccc(NC(CCN6CCC(C(=O)OCCCP(=O)(O)O)CC6)CSc6ccccc6)c(S(=O)(=O)C(F)(F)F)c5)cc4)CC3)c2)c(-c2ccc(Cl)cc2)n1C(C)C | 596521-263-R-J1-PDC complex spheroid growth | 102% |
| NC1CCC(NC2CC2c2ccccc2)CC1 (stereo not drawn) + Cc1c(S(C)(=O)=O)c(-c2cc(F)cc(N3CCN(c4ccc(NS(=O)(=O)c5ccc(NC(CCN6CCC(C(=O)OCCCP(=O)(O)O)CC6)CSc6ccccc6)c(S(=O)(=O)C(F)(F)F)c5)cc4)CC3)c2)c(-c2ccc(Cl)cc2)n1C(C)C | 596521-263-R-J1-PDC complex spheroid growth | 89.7% |

Now look at this entry.
// fetch 596521-263-R-J1-PDC complex spheroid growth viability, T/C for O=C(c1ccc(F)c(F)c1Nc1ccc(I)cc1F)N1CC(O)([C@@H]2CCCCN2)C1 + CNC(C)C(=O)NC1CN(S(=O)(=O)c2cccc(S(=O)(=O)N3CCC4CCC(C(=O)NC(c5ccccc5)c5ccccc5)N4C(=O)C(NC(=O)C(C)NC)C3)c2)CCC2CCC(C(=O)NC(c3ccccc3)c3ccccc3)N2C1=O 73.3%
